# Assay name: Cytotoxic Profiling in HEK 293 Cell Line of Diverse Libraries Using Quantitative High-Throughput Screening; note: nearly all actives have a fitted effect of over 60% in size; note: potency is the fitted concentration of half-maximal effect
# Run parameters: HEK 293 viability, ATP luminescence (CellTiter-Glo), 48-72 h; series mostly up to 115 µM
The campaign covered roughly 94,000 compounds. About 6,200 (6.6%) were called active. Inconclusive results (about 31%) are left out. This excerpt belongs to a sample that is enriched for actives.
Value type: Potency

Molecule	Potency
O=[S+]1([O-])NCC2(CCN(CC3CC3)CC2)Oc2ncccc21	inactive
c1coc(-c2ccnc3nc(C4CC4)nn23)c1	inactive
Cn1c(=O)[nH]cc(CC(=O)N2CCn3nc(Cc4ccccc4)cc3C2)c1=O	inactive
CC(C)S(=O)(=O)N1CCC(N2CC(OCC3CC3)C23CCCCC3)CC1 (stereo not drawn)	inactive
Cc1ccc(S(=O)(=O)N(C)CC2CCOCC2)cc1F	inactive

Task: Fill blank: measured Potency of the molecule COc1cccc(CC(=O)N2CCC(CC3CC3)(NC(=O)c3ccccc3)CC2)c1 is ____.
Result: inactive

Task: Fill blank: measured Potency of the molecule CCc1noc(-c2cccn3c(CNC(=O)c4cccc(Cl)c4)nnc23)n1 is ____.
Result: inactive

Task: Fill blank: measured Potency of the molecule COC[C@H]1C[C@@H](NC(=O)c2cc(C)oc2C(F)(F)F)[C@H](O)[C@@H]1O is ____.
Result: inactive

Task: Fill blank: measured Potency of the molecule Cc1ccc(S(=O)(=O)N2CC[C@H](c3nnc(-c4ccccc4)o3)C2)cc1 is ____.
Result: inactive

Task: Fill blank: measured Potency of the molecule O=C(Nc1ccccc1Br)N1CCC2(CC1)SCC(=O)N2Cc1ccco1 is ____.
Result: inactive

Task: Fill blank: measured Potency of the molecule CNC(=O)c1cc(C2CC2)nc2onc(C3CCCN(C(=O)C4CC4)C3)c12 (stereo not drawn) is ____.
Result: inactive

Task: Fill blank: measured Potency of the molecule CC(=O)NC1(C)CCN(Cc2cccc(-c3ccc(C(=O)c4ccccc4)cc3)c2)C1 (stereo not drawn) is ____.
Result: 39.8 µM (active)

Task: Fill blank: measured Potency of the molecule COc1ccc(CN2CCN3C(=O)N(c4ccccc4)C[C@H]3C2)cn1 is ____.
Result: inactive

Task: Fill blank: measured Potency of the molecule OC1CC(c2cc(N3CCC(c4nnc5n4CCCCC5)CC3)ncn2)C1 (stereo not drawn) is ____.
Result: inactive

Task: Fill blank: measured Potency of the molecule O=c1c2ccccc2cnn1CCNC1CCC2(CCNCC2)CC1 is ____.
Result: inactive

Task: Fill blank: measured Potency of the molecule CC(C)NC(=O)N1CCCC1c1noc(COc2ccc(F)cc2)n1 (stereo not drawn) is ____.
Result: inactive

Task: Fill blank: measured Potency of the molecule CC1=C[C@@H](CNC(C)C)[C@H](C(C)C)C[C@H]1Cc1nnc(-c2ccc(C)cc2)o1 is ____.
Result: 70.8 µM (active)

Task: Fill blank: measured Potency of the molecule COc1ccc(Nc2ccc3c(n2)CN(Cc2ccccc2C)C(=O)CO3)cn1 is ____.
Result: 100 µM (active)

Task: Fill blank: measured Potency of the molecule COc1ccc(C)cc1NC(=O)Cn1nc2n(c1=O)CCCC2 is ____.
Result: inactive

Task: Fill blank: measured Potency of the molecule O=C(c1nc(-c2cccnc2)c2cnccn12)N1CCN(c2ncccn2)CC1 is ____.
Result: inactive

Task: Fill blank: measured Potency of the molecule Cc1ccc(C(=O)N2CCC(CCC(=O)N3CCc4ccccc4C3)CC2)cc1 is ____.
Result: 44.7 µM (active)

Task: Fill blank: measured Potency of the molecule CNc1nc(C(=O)NCc2ccc3[nH]c(-c4ccc(F)cc4)c(C)c3c2)cs1 is ____.
Result: 39.8 µM (active)

Task: Fill blank: measured Potency of the molecule Cc1cnc(CC2CCN(S(=O)(=O)c3ccc(C#N)cc3)C2)n1Cc1ccccc1 (stereo not drawn) is ____.
Result: 44.7 µM (active)

Task: Fill blank: measured Potency of the molecule CCN(CC)C(=O)C(NC(=O)c1ccc(OC)cc1)C1CCN(C(=O)c2ccc(F)cc2)CC1 (stereo not drawn) is ____.
Result: inactive

Task: Fill blank: measured Potency of the molecule Cc1ccc(S(=O)(=O)N(C)Cc2ccccc2C(F)(F)F)cc1 is ____.
Result: 70.8 µM (active)

Task: Fill blank: measured Potency of the molecule CCC(CC)N1CCN(C(=O)c2ccc3c(c2)N(S(C)(=O)=O)CC3)CC1 is ____.
Result: inactive

Task: Fill blank: measured Potency of the molecule COCCCN(CCC(=O)NCc1ccc(F)cc1)C(=O)c1cc(C)oc1C is ____.
Result: inactive

Task: Fill blank: measured Potency of the molecule CC1=C[C@@H](CNC2CC2)[C@H](C(C)C)C[C@H]1Cc1nnc(-c2ccc(C)cc2)o1 is ____.
Result: 50.1 µM (active)

Task: Fill blank: measured Potency of the molecule CC1CCN(C(=O)CCNc2c(-c3ccc(F)cc3)nc3cnccn23)CC1 is ____.
Result: inactive

Task: Fill blank: measured Potency of the molecule CCCNC(=O)CCC1CCN(C(=O)c2ccc(C)cc2)CC1 is ____.
Result: inactive

Task: Fill blank: measured Potency of the molecule CN1CCCN(C(=O)c2ccccc2)c2ccccc21 is ____.
Result: inactive

The origin of these recorded values is PubChem BioAssay AID1345083.
